Test system: Saccharomyces cerevisiae
Assay: protein stability index of tFT-peptide fusion in deletion strain of DAS1 (PSI (0-1 scale)); higher = more stable (slower turnover)
value-type: protein stability index
# answer = number (no unit)

Look up and report measured protein stability index for this entry: `RLIMPLPVQFLN`
0.572

Hello, please tell me recorded protein stability index for this one: `VRGAVIGWRLVG`
0.68

Fill in reported protein stability index for this entry: `ARWFVGLWRGAS`
0.699

Tell me its protein stability index given `PSLNASFWRVVG` as the entry.
0.699

Report measured protein stability index; entry is `CTSCGYKFRENN`
0.693

Note protein stability index for the sequence shown: `CTSCSYKFRTNN`
0.686

Item `LVRYLSCVACIN` : provide protein stability index
0.316

Respond only with protein stability index recorded for `RLIFPLPVQFLN`
0.553

Provide measured protein stability index value, entry: `RLIAPLPVQFLN`
0.738

Fill in reported protein stability index for this entry: `LVVYLGCVACIN`
0.192

----------
Tested on: Saccharomyces cerevisiae
Assay: protein stability index of tFT-peptide fusion (C-terminal peptide) (PSI (0-1 scale)); higher = more stable (slower turnover)
Details: genetic background: wild type; temperature: 30 C
For each record, write down the corresponding protein stability index.
Output: the number by itself.

Quote Saccharomyces cerevisiae protein stability index for entry `YLPRHPLPPFPV` .
0.681

Supply protein stability index measured with Saccharomyces cerevisiae for `GGRGWGGEMGGR` .
0.716

Fill in: protein stability index on Saccharomyces cerevisiae, entry `PTRIPRAPGPAQ`
0.694

Consider the sequence `PPPPPVLPPRPP` tested on Saccharomyces cerevisiae; state its protein stability index.
0.713

# return protein stability index of `KKKKSKIKKKRE` (system: Saccharomyces cerevisiae)
0.665

Param request: protein stability index | system Saccharomyces cerevisiae | item `VGEGWGAMIMQE`
0.737

Return reported protein stability index for target or system Saccharomyces cerevisiae, item `KITKKNRSWKTS` .
0.623

Give protein stability index; test system Saccharomyces cerevisiae; sequence `VCLVCLFNACRF`
0.608

Name the recorded protein stability index of `GGFPVGLVSGFC` , assay system Saccharomyces cerevisiae.
0.641

Please tell me the measured protein stability index for `DSLTKYSAKEYR` ; system: Saccharomyces cerevisiae.
0.578

State protein stability index (Saccharomyces cerevisiae) of `CKCRRYYTLNGG` .
0.656

Report value: protein stability index, system: Saccharomyces cerevisiae, sequence: `PSHLWWDCIRKG`
0.625

Specify the recorded protein stability index for `VSRVHIRIEGNH` , system: Saccharomyces cerevisiae.
0.528

Param request: protein stability index | system Saccharomyces cerevisiae | item `CLLPGSSYSFTS`
0.712

Recall the reported protein stability index of `GMSFALSVYFFP` on Saccharomyces cerevisiae and write it down.
0.601

Supply protein stability index measured with Saccharomyces cerevisiae for `TPSPHTPLPLAP` .
0.708

Consider the sequence `RKKKKKKKKKSN` tested on Saccharomyces cerevisiae; state its protein stability index.
0.631

Under Saccharomyces cerevisiae: report protein stability index of `DPQRQDVFRVSE` .
0.682

Quote protein stability index with test system Saccharomyces cerevisiae for `LPPSPLALVSSS`
0.637

----------
Test system: Saccharomyces cerevisiae
Assay: protein stability index of tFT-peptide fusion (C-terminal peptide) (PSI (0-1 scale)); higher = more stable (slower turnover)
Settings: genetic background: cdc53-1; temperature: 37 C
I'd be grateful if you could share measured protein stability index for these entries.
The reply should be a number, written without any unit.

Identify measured protein stability index associated with `FTGLCQGLWLGW`
0.743

Specify reported protein stability index for the sequence shown: `FVRVFLRLGVVS`
0.17

Write down protein stability index measured for item `IIFCVRVVGGDL`
0.508

Report protein stability index for `SRSFFRRLLFCF`
0.77

Please list protein stability index recorded for the sequence `WVLFRLPYQFFS`
0.707

Write down protein stability index measured for item `IKSLLGCWHKHY`
0.732

Using known records, supply protein stability index for `RRIKIRKQEYIS`
0.696

Using the record for `WSNICFWCGVWS` , state its measured protein stability index.
0.826

Report protein stability index for `FLSFARSSCLWF`
0.742

Determine its reported protein stability index: `SLICLSVGVLLR`
0.181

Look up and report measured protein stability index for this entry: `KLRMGRYIVRII`
0.661

Input `VSVQVRCCPWVG` , output reported protein stability index.
0.735

Specify measured protein stability index for `FLMLFVVLWLFL` .
0.46

Find the measured protein stability index of `NSCHFYSRFYLA` and report it.
0.742

Check the records and state protein stability index for `WGCTGGRGRLVC`
0.74

Note protein stability index for the sequence shown: `EWAILSLGVMCV`
0.118

Note protein stability index for the sequence shown: `YFCVELSVFGFF`
0.546

Determine from records and report protein stability index for `QITIYPIPLARF`
0.937

Quickly give me recorded protein stability index for `LWLVSLLVLWLT`
0.375

Supply recorded protein stability index for `PLRVFFLVAFCL` here.
0.48

Look up and report measured protein stability index for this entry: `GSVCVVCWELVV`
0.583

Let me know recorded protein stability index for `YLFFHMVVLVVV` , thanks.
0.0745

Answer with reported protein stability index of `VGLWCWSFVLVW`
0.0934

State its protein stability index for this sequence: `WLFASCVFFWSS`
0.502

Fill in protein stability index for record `ACVRLVLCVCRV`
0.341

Provide only the value of recorded protein stability index for `GKWFSWNAIWIR`
0.0354

Give reported protein stability index value for `LIFRLCVCGVFW`
0.549

Identify measured protein stability index corresponding to `VFGFSLLTLLVL`
0.511

Give the reported value of protein stability index for this record: `NYCLYFKLSRLS`
0.691

Give protein stability index for `WLTCSLVFNVFW`
0.455

Determine from records and report protein stability index for `LWFLDYVFICFL`
0.347

# return recorded protein stability index for entry `LYLFKVLFFRVF`
0.173

For the sequence `VAFVVALSLIFL` , give its reported protein stability index.
0.443

Tell me its protein stability index given `CRAAMYSFFLNF` as the entry.
0.75

Identify the reported protein stability index for the following entry. `LFTTYVFLVFFQ`
0.474

Consider the sequence `VYFRMGFMRVCV` and give its recorded protein stability index.
0.5

// Input: `RHRGHVRLALLN` . Output its protein stability index only.
0.845

Name the recorded protein stability index of the item `AIMFLVLGYVFF` in your answer.
0.395

Identify measured protein stability index corresponding to `LPLHTLLLCPPV`
0.459

Identify measured protein stability index associated with `LCFTSVFTLFIC`
0.469

Determine its reported protein stability index: `ESSRNILLWRTI`
0.755

Identify the reported protein stability index for the following entry. `GLCGVCLVRCVG`
0.412

Item `FCRLTFCFFAFL` : provide protein stability index
0.646

Using known records, supply protein stability index for `EYGLLLTLLAYY`
0.508

Please look at this sequence and report its protein stability index: `TFRVRRQKNRNM`
0.692

Provide only the value of recorded protein stability index for `VHGWRPLLFHTR`
0.668

Recall and state the measured protein stability index for `HNQDKNVKYKIG` .
0.733

Please indicate protein stability index recorded for `LTFRFGVNPYVF`
0.748

Complete the entry with protein stability index for `PDPIFGEWVYMV`
0.721

Specify reported protein stability index for the sequence shown: `RVTRLDAIYFRI`
0.198

Quick one: give measured protein stability index for `GPILVWVMADWG`
0.506

Quick one: give measured protein stability index for `RPPPAANFTRSS`
0.688

Complete the entry with protein stability index for `IRVLACFLFAVS`
0.305

For the sequence `GGSGGVSWRRVV` , report protein stability index.
0.735

Look up and report measured protein stability index for this entry: `LRVAWVCISIVA`
0.0899

Input `QCSVRLKEIQFS` , output reported protein stability index.
0.726

Please give measured protein stability index of the following entry: `CRLFFVFVFFWW`
0.179

Give the measured protein stability index for `AWVEVYVISIGV`
0.257

Quick one: give measured protein stability index for `VPQQWFAETGRC`
0.763

Check the records and state protein stability index for `CWILLFGCVWVG`
0.335

Please list protein stability index recorded for the sequence `RTWLHLVVPVWG`
0.265

Return value of protein stability index for input `AEVLCEIVIALR` , no commentary.
0.675

State its protein stability index for this sequence: `ERRWKRKVIGLC`
0.736

# return recorded protein stability index for input `FFSFFLSFRLWF`
0.298

Supply measured protein stability index of `AGMLMCLYLFFV` in your reply.
0.661

Recall and state the measured protein stability index for `GAVGRWGWVSFV` .
0.773

# return recorded protein stability index for input `IHIFIIFRVQWK`
0.232

Output measured protein stability index for this item: `IFSFRWVLPFWL`
0.701

Give reported protein stability index value for `YMVSLSFTLVRS`
0.454

Using the record for `VARLGGRIGWEG` , state its measured protein stability index.
0.736

Assign protein stability index to the following record: `GILPIYNIISRL`
0.948

Give the value of protein stability index reported for the following: `PLSNLCRVLTFI`
0.639

Item `GLLGRCPVVVFG` : provide protein stability index
0.397

Please look at this sequence and report its protein stability index: `GGYIINRWRTKN`
0.709

// Input: `LCSCAVVICCSL` . Output its protein stability index only.
0.436

Report protein stability index for `GVVCCVVVGRMG`
0.659

Specify protein stability index for `GNIHHTRFLALL` and stop.
0.859

Tell me protein stability index reported for `WFCCAQRGVIVG`
0.452

Entry `LLGGRVLWAWRV` needs its protein stability index filled in; supply it.
0.689

Please give the documented protein stability index of `IHCLSIVVHGLS`
0.569

Given `GREGETGSKAGR` , respond with its protein stability index.
0.708

Give protein stability index for the following sequence: `SYMWLVEVLLFI`
0.306
